Reported Mean TLR2-TMD* heterotypic interaction (ToxR signal) values are given for each entry in this list.
- Tested on: TLR2 TMD (functional ToxR chimera)
- Experiment Description: Dominant-negative (heterotypic) ToxR assay, TLR2 as dominant phenotype
- Assay type: cell-based
- Experimental Conditions: Miller units normalized to poly-Leu* = 1 and corrected for expression, lower = stronger interaction, N in table
No end group written: not given here.
Property Label: Mean TLR2-TMD* heterotypic interaction (ToxR signal)

>>> data_value("TLR4*: TLR4 TMD chimera with nonfunctional ToxR* domain (negative phenotype) (GNRASTIIGVSVLVVSVVAVLVYKFYFGSLIN; also: fused to non-functional ToxR* (S87H) and maltose binding protein, ends not given here)")
1.1386
>>> data_value("GNRASWVLV G VLG G LLLLTILVLAMWGSLIN [Integrin*, Integrin αIIb TMD fused to nonfunctional ToxR* domain, unrelated receptor, reference compound]")
0.7609
>>> data_value("GNRASWQLLAFFLAFFLDLILLIIALYLGSLIN [TMD5*, TMD5 of latent membrane protein 1 fused to nonfunctional ToxR* domain, unrelated receptor, reference compound]")
1.1904

* * *

- System: TLR1 TMD (functional ToxR chimera)
- Experiment Description: Dominant-negative (heterotypic) ToxR assay, TLR1 as dominant phenotype
- Assay type: cell-based
- Experimental Conditions: Miller units normalized to poly-Leu* = 1 and corrected for expression, lower = stronger interaction, N in table
No end group written: not given here.
Mean TLR1-TMD* heterotypic interaction (ToxR signal) values for the substances below.
Property Label: Mean TLR1-TMD* heterotypic interaction (ToxR signal)

>>> data_value("TLR6*: TLR6 TMD chimera with nonfunctional ToxR* domain (negative phenotype) (GNRASITLLIVTIGATMLVLAVTVTSLCIYLGSLIN; also: fused to non-functional ToxR* (S87H) and maltose binding protein, ends not given here)")
0.3349
>>> data_value("GNRASWVLV G VLG G LLLLTILVLAMWGSLIN [Integrin*, Integrin αIIb TMD fused to nonfunctional ToxR* domain, unrelated receptor, reference compound]")
0.7583
>>> data_value("TLR4*: TLR4 TMD chimera with nonfunctional ToxR* domain (negative phenotype) (GNRASTIIGVSVLVVSVVAVLVYKFYFGSLIN; also: fused to non-functional ToxR* (S87H) and maltose binding protein, ends not given here)")
0.8709
>>> data_value("TLR5*: TLR5 TMD chimera with nonfunctional ToxR* domain (negative phenotype) (GNRASFSLFIVCTVTLTLFLMTILTVTGSLIN; also: fused to non-functional ToxR* (S87H) and maltose binding protein, ends not given here)")
0.6805
>>> data_value("GNRASWQLLAFFLAFFLDLILLIIALYLGSLIN [TMD5*, TMD5 of latent membrane protein 1 fused to nonfunctional ToxR* domain, unrelated receptor, reference compound]")
1.0921

* * *

We begin with a simple list: items and their reported Mean TLR6-TMD* heterotypic interaction (ToxR signal).
- Tested on: TLR6 TMD (functional ToxR chimera)
- Experiment Description: Dominant-negative (heterotypic) ToxR assay, TLR6 as dominant phenotype
- Assay type: cell-based, E. coli
- Experimental Conditions: Miller units normalized to poly-Leu* = 1 and corrected for expression, lower = stronger interaction, N in table
No end group written: not given here.
Property Label: Mean TLR6-TMD* heterotypic interaction (ToxR signal)

>>> data_value("TLR1*: TLR1 TMD chimera with nonfunctional ToxR* domain (negative phenotype) (GNRASITLLIVTIVATMLVLAVTVTSLCSYLGSLIN; also: fused to non-functional ToxR* (S87H) and maltose binding protein, ends not given here)")
0.3316
>>> data_value("GNRASWQLLAFFLAFFLDLILLIIALYLGSLIN [TMD5*, TMD5 of latent membrane protein 1 fused to nonfunctional ToxR* domain, unrelated receptor, reference compound]")
1.1235
>>> data_value("TLR4*: TLR4 TMD chimera with nonfunctional ToxR* domain (negative phenotype) (GNRASTIIGVSVLVVSVVAVLVYKFYFGSLIN; also: fused to non-functional ToxR* (S87H) and maltose binding protein, ends not given here)")
0.9610
